- System: Fer (mouse)
- assay_method_text: phosphorylation enrichment, bacterial display (enrichment ratio); higher = better substrate or ligand; peptides without Tyr show the background
# binarize phosphorylation enrichment: threshold 0.4 inclusive, high side MET, low side NOT MET

Example cases with answers are listed next.
INSERT INTO assay_data (item_sequence, label_class) VALUES
  ('RLQEDYDHSFF [ESD_Y258_G257D_YF]', 'MET'),
  ('VPVDGYISGLL [PAK6_Y81_M76V]', 'MET'),
  ('MKSIKYMDKEV [CCDC60_Y41_I46V]', 'NOT MET'),
  ('EEQKKYFNATK [SCN5A_Y1494_M1498T_YF]', 'NOT MET');

Hello, I need to know if AKLDEYIAIAK [RCOR3_Y46] has measured phosphorylation enrichment not below 0.4. Thanks!
MET

What would you report for MASTSYDYCRV [BST2_Y6] ?
MET

* * *

- target: Fyn (UniProt P06241)
- Sequence (P06241 whole entry, looked up): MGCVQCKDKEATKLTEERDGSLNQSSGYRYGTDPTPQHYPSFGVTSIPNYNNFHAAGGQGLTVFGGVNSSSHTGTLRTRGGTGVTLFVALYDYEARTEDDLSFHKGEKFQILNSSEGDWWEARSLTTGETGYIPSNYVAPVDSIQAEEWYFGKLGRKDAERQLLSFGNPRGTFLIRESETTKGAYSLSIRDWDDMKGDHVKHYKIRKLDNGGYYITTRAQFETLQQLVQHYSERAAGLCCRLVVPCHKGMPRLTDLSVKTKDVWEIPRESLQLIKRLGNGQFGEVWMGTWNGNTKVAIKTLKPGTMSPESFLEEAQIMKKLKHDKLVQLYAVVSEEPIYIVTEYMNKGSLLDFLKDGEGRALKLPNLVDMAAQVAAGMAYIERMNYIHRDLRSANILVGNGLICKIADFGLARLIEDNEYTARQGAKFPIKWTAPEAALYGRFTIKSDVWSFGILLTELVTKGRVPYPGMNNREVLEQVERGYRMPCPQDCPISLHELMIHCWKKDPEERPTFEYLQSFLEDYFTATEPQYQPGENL
- assay_method_text: phosphorylation enrichment, bacterial display (enrichment ratio); higher = better substrate or ligand; peptides without Tyr show the background
Readings of phosphorylation enrichment for the listed sequences
The answer should be a number; do not append a unit.

Here's what some known entries look like.
INSERT INTO results (item_sequence, property_name, numeric_readout) VALUES
  ('TDTAAYEERVR [SPTB_Y474]', 'phosphorylation enrichment', 0.795),
  ('YYSSEYHCVGG [CTSC_Y345_Y347C]', 'phosphorylation enrichment', 2.49),
  ('RRNVFYFSFLL [PTEN_Y177_Y174N_YF]', 'phosphorylation enrichment', 0.984);

Recall the recorded phosphorylation enrichment for RESFKYFPSSL [CXXC1_Y218_YF] with Fyn (UniProt P06241) and state it.
0.435

Follow-up entry: YGEYRYRSVIK [CFTR_Y517_D513G]
7.2

Would you kindly repeat that for AFEQQYSPIPR [NOX1_Y373] ?
0.624

Thanks! And KNEVLYDEENH [ARFGEF1_Y314_G316E] ?
0.537

Subsequent entry: CTLSVYRQLHN [LUZP1_Y1036]
0.466

Continue with RGERPYGGGGG [FUS_Y526_R522G]
0.474

Entry KGTAGYTTVAV [RET_Y752_R749T] please
0.359

Next up: ALDRPYTSKHS [NANS_Y71_E68D]
0.499

Can you check VGTKRYMAPEV [ACVRL1_Y375] next?
0.361

Next entry: ATCKAYGQALA [TKT_Y321_R318C]
0.424

Same question, FADIAYNYRQG [PAH_Y166_H170Q] this time
0.482

// next record AKLDEYIAIAK [RCOR3_Y46]
0.479

Subsequent entry: GRDVIYKGFED [NFU1_Y194_G190R]
2.94

* * *

- Tested on: c-Src
- assay_method_text: phosphorylation enrichment, bacterial display (enrichment ratio); higher = better substrate or ligand; peptides without Tyr show the background
Entries and their phosphorylation enrichment values follow.
Output: the number by itself.

Any idea what phosphorylation enrichment was measured for DMQTLYVNTAA [SMCHD1_Y403] ?
0.418

Same question, RFLERYIFNPE [HLA-DPB1_Y57_R61P_YF] this time
0.804

Moving on to the next sequence: ASRKYYAMKIL [AKT3_Y174_G171R]
0.265

* * *

- Tested on: Fer (mouse)
- assay_method_text: phosphorylation enrichment, bacterial display (enrichment ratio); higher = better substrate or ligand; peptides without Tyr show the background
Measured phosphorylation enrichment of individual entries
# output: bare number, no unit

Check out these entries, answers already filled in.
INSERT INTO results (item_sequence, target, numeric_readout) VALUES
  ('LNCIYYKDQTG [RS1_Y166_W163C]', 'Fer (mouse)', 1.55),
  ('RSSNTYTLMDV [ALCAM_Y298_T301M]', 'Fer (mouse)', 1.42),
  ('CGTPTYLAPEV [CHEK2_Y390]', 'Fer (mouse)', 0.564);

Look up phosphorylation enrichment: VQDPAYLRDID [OPRK1_Y369]
0.465

Record: AHLTEYLSTHY [UQCRC1_Y219_D215H]
0.371

Consider next the sequence DCAAIYGNEPD [AKR1A1_Y50_E55D] in the same way.
0.672

Record: PLQKIYNYNVL [SLC4A1_Y553_T552I]
0.582

How about NTILLYHIMAW [GPR143_Y157_S152N] ?
0.89

Consider next the sequence CTTIHYNFICN [TP53_Y234_M237I_YF] in the same way.
0.672

* * *

- System: Fer (mouse)
- assay_method_text: phosphorylation enrichment, bacterial display (enrichment ratio); higher = better substrate or ligand; peptides without Tyr show the background
Hi, to clarify the labels: Yes covers phosphorylation enrichment from 0.4 upward, No covers anything below 0.4.

INSERT INTO results (item_sequence, label_class) VALUES
  ('TARWEYMHSPS [CPOX_Y429]', 'No'),
  ('GIFKDYFRFNF [PLA2G2D_Y85_S80G_YF]', 'Yes'),
  ('YEEDSYVTRSQ [RET_Y905_K907T]', 'Yes'),
  ('LHRAHYDLHHT [AHSG_Y314_R317H]', 'Yes'),
  ('LENQTYFKSFE [AKAP9_Y2482]', 'Yes'),
  ('GRTGHYLCNAC [GATA1_Y223_D218G]', 'No');

API: above_or_equal(metric=phosphorylation enrichment, cutoff=0.4) for item TFLRTYTDAMQ [TSPAN7_Y124]
No

* * *

- target: SHP2-C SH2;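 note: peptide library displayed on the E. coli surface as eCPX fusions, selected cells deep-sequenced, score is each peptide's frequency after selection divided by its frequency in the input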
- assay_method_text: SH2 binding enrichment of the phosphorylated peptide, bacterial display (enrichment ratio); higher = better substrate or ligand; peptides without Tyr show the background
property_name: SH2 binding enrichment

INSERT INTO assay_data (item_sequence, result) VALUES
  ('IGEGTSGVVYK [CDK2_Y15_Y15S]', 0.562),
  ('KIDAKYKKKIE [WDR19_Y1230]', 0.602),
  ('RQQEVYLLFKQ [RARRES1_Y159_D158V_YF]', 1.05);

Which SH2 binding enrichment value is on record for LVMFFYAIFGM [SCN1A_Y1684_I1683F] ?
2.64

Same question, FEEDPYLVVNP [MCM6_Y810_YF] this time
0.557

Same question, NTGVFYDLFGG [PTPN11_Y63_D61V_YF] this time
0.766

Try this sequence too: ISRASYYRKGG [ALK_Y1282_Y1278S]
0.426

Proceed to RPGSGYTNIMQ [PKLR_Y564_R569Q]
1.76

Now consider SHISGYAALRR [RAPH1_Y1226_T1228A] and answer again.
0.51

Another sequence to check: GISDEYHVIQH [GCDH_Y398_R402Q]
0.567

How about this sequence: SRDDFYETIAM [NPY1R_Y347_D346Y_YF]
0.73

Also, KLPDAYERLIL [G6PD_Y437] please.
0.723

Next record, please: PHQTIYGALMI [FGF23_Y70_S71G]
0.599

Also check LSIQCYLRALD [HMGCS2_Y262]
0.49

ILTLKYPIERG [ACTA1_Y71_H75R] ?
1.01

Please give the result for RNIQQHNSFVS [PRKAR1A_Y373_Y373H] too.
0.694

Now the sequence FVSSFYHAFSG [ACTN4_Y265_YF]
1.07

Entry to check: PLQKIYNYNVL [SLC4A1_Y553_T552I]
0.638

Same question for DDLEVYLKHLL [SACS_Y3477] please.
0.605

Same question, LTSKPYAFTAQ [NDUFS1_Y236_R241Q] this time
0.906

Please answer likewise for HGEAFYSEVKA [PAK5_Y182_P187A_YF]
0.931

Also FFNSEYGELSE [FLT4_Y1337_YF] , if possible.
0.734

* * *

Measured phosphorylation enrichment of individual entries
- target: Fyn (UniProt P06241)
- assay_method_text: phosphorylation enrichment, bacterial display (enrichment ratio); higher = better substrate or ligand; peptides without Tyr show the background
# output: bare number, no unit

INSERT INTO assay_data (item_sequence, numeric_readout) VALUES
  ('DRLANYLEKVR [KRT40_Y103_S102N]', 0.399),
  ('YQNGMYGLHQD [SGSH_Y89_H84Y]', 0.751),
  ('PKDSAYVTWEP', 2.17);

What value of phosphorylation enrichment has been reported for the following sequence? MFRAGYDTKQE [F10_Y407_C404R]
0.395

Note, next up: QTSTDYDIRFF [CSNK2A1_Y131_L128S_YF]
1.43

Can you handle LADKPYTFEFF [FXN_Y118_D122Y_YF] next?
1.47

And the next one, KGFCGYSFDDI [TMEM230_Y110_R108C_YF] ?
0.526

Here is the next sequence: HSGVSYYINLC [IGF2R_Y2024_N2020S]
0.661
